- Test system: Nucleic Acid
- protocol-notes: Stabilization of A73U tRNA(Tyr)-5'Rhd-AM1A T box antiterminator RNA complex assessed as increase in anisotrophy changes by at 100 uM by fluorescence anisotropy-based assay relative to untreated control
- Assay type: nucleic-acid assay
measurement-kind: Activity (%)

Answered examples (2):
> print(dat)
                                   compound  measurement.kind  reported
1  CCOC(=O)C1CCCN(Cc2cn(CC(O)COC(=O)C3CCCCC3)nn2)C1 (centres undefined)          Activity         6
2  OC(Cn1cc(CN2CCOCC2)nn1)c1ccccc1 (centres undefined)          Activity         6

A. CCCCNC(=O)OCC(O)Cn1cc(CN(CCCC)CCCC)nn1 (centres undefined)
B. OC(COCc1ccccc1)Cn1cc(CN2CCOCC2)nn1 (centres undefined)
Prompt: Between A and B , which one shows the larger Activity value? Which one? Tell me its label.
Response: A

I. CCOC(=O)C1CCCN(Cc2cn(CC(O)c3ccccc3)nn2)C1 (centres undefined)
II. OC1CCCCC1n1cc(CN2CCOCC2)nn1 (centres undefined)
Prompt: Between I and II , whose measured Activity reads higher? Identify your selection by its label.
Response: II
